Every entry's value here was drawn from ChEMBL document CHEMBL1148869.

Test system: Eimeria acervulina
assay: Anticoccidial activity against Eimeria acervulina infected Chick assessed as reduction in oocyst production at 25 ppm after 7 days
Format: functional
Set-up: scale not given: the % may be the effect or the level left
Reported Activity is given for each of the following compounds.

smiles_representation: CCN(C)Cc1ccn2c(-c3ccnc(NCC(C)(C)C)n3)c(-c3ccc(F)cc3)nc2c1
Activity: <50%
--
smiles_representation: C[C@H](Nc1nccc(-c2c(-c3ccc(F)cc3)nc3cc(CN(C)CCNS(C)(=O)=O)ccn23)n1)c1ccccc1
Activity: <50%
--
smiles_representation: C[C@H](Nc1nccc(-c2c(-c3ccc(F)cc3)nc3cc(CN(C)[C@@H](C)C(=O)N(C)C)ccn23)n1)c1ccccc1
Activity: 50%
--
smiles_representation: CN(C)Cc1ccn2c(-c3ccnc(NCC(C)(C)C)n3)c(-c3ccc(F)cc3)nc2c1
Activity: <50%
